Ref: patent US8084457B2

target: CDK9/Cyclin T1 (Homo sapiens, UniProt P50750); experiment: Kinase assay using CDK9/Cyclin T1; conditions: read-out: CDK9 (activity range)
Sequence (P50750 whole entry): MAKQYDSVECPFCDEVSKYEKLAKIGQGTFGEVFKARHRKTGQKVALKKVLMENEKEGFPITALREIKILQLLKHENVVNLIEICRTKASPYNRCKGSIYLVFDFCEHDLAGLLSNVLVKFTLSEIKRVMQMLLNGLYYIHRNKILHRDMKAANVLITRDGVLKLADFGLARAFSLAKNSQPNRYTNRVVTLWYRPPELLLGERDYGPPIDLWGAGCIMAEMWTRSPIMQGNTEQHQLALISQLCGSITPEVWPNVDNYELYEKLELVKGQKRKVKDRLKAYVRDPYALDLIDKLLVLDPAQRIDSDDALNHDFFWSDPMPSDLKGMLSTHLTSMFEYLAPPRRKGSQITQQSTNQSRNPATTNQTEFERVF
Sequence (O60563 whole entry partner): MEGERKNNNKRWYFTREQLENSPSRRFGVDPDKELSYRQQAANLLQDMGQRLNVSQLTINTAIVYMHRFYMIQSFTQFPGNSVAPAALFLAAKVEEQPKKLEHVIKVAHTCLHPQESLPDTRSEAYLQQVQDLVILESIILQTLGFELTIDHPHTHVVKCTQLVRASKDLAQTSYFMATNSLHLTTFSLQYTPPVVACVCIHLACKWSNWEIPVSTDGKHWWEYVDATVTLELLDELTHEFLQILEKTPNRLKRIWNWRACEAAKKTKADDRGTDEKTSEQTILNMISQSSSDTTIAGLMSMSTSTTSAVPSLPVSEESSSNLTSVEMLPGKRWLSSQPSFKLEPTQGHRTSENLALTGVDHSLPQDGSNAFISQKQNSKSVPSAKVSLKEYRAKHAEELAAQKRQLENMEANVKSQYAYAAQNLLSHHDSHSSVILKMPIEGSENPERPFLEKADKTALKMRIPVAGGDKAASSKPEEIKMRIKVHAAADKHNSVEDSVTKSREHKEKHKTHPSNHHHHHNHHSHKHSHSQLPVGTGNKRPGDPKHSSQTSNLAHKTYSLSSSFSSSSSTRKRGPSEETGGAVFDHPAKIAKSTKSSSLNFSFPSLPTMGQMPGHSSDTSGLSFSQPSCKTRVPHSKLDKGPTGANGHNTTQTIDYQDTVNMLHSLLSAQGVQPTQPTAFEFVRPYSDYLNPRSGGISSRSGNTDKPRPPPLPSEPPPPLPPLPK
pIC50: −log10 of the molar value.
Quantity: pIC50

The recorded pIC50 for entry `Cc1ccc(Nc2cc(-c3cccc(N)c3)ncn2)cc1NS(=O)(=O)c1cn(C)cn1` equals 6.00 to 9.00

Memo: `Cc1ccc(Nc2cc(-c3cccc(C(F)(F)F)c3)ncn2)cc1NS(C)(=O)=O` , reported pIC50: 3.60 to 5.00

The compound identified as `COc1cccc(-c2cc(Nc3ccc(NC(=O)c4ccc(N)cc4)cc3)ncn2)c1OC` registered its pIC50 at 5.00 to 6.00

According to the records, this compound `COc1ccccc1-c1cc(Nc2ccc(NC(=O)NCc3ccc(C)cc3)cc2)ncn1` displays pIC50 of 6.00 to 9.00

Record summary for `COc1cccc(OC)c1-c1cc(Nc2ccc(NC(=O)c3ccc(N)cc3)cc2)ncn1` : reported pIC50 = 5.00 to 6.00

The reported pIC50 of the compound `CNC(C)(C)C(=O)Nc1ccc(Nc2cc(-c3ccccc3OC)ncn2)cc1` was 6.00 to 9.00

Recorded pIC50 (compound `Nc1cccc(-c2cc(Nc3cccc(S(N)(=O)=O)c3)ncn2)c1` ): 6.00 to 9.00

Please fill in: pIC50 reported for `Oc1ccccc1-c1cc(NCCc2ccncc2)ncn1` = 5.00 to 6.00

Sure, the documented pIC50 for `COc1ccccc1-c1cc(Nc2ccc(NC(=O)[C@@H](N)C(C)C)cc2)ncn1` is 6.00 to 9.00

The recorded pIC50 for `Nc1ccc(C(=O)Nc2ccc(Nc3cc(-c4cccs4)ncn3)cc2)cc1` is 5.00 to 6.00

Record `Cc1ccc(Nc2cc(-c3cccc(O)c3)ncn2)cc1NS(C)(=O)=O` , field pIC50: 6.00 to 9.00

get_value(item= `COc1ccccc1-c1cc(Nc2ccc(NC(=O)C3(N)CCCCC3)cc2)ncn1` , readout=pIC50) returns 6.00 to 9.00

Reported pIC50 of `COc1ccccc1-c1cc(Nc2ccc(NC(=O)C3CCN(C)CC3)cc2)ncn1` : 6.00 to 9.00

The value of pIC50 measured for the compound COc1ccccc1-c1cc(Nc2ccc(NC(=O)C3CCCN(C)C3)cc2)ncn1 (stereo not drawn) turned out to be 6.00 to 9.00

response.value for `CS(=O)(=O)Nc1cccc(-c2cc(Nc3ccc(NC(=O)[C@@H]4CCCCN4)cc3)ncn2)c1` (field: pIC50) = 6.00 to 9.00

The compound listed as `COc1ccccc1-c1cc(Nc2cccc(N)c2)ncn1` has a reported pIC50 of 6.00 to 9.00

Quick note, pIC50 for NC1CCCCC1NC(=O)c1ccc(Nc2cc(-c3ccccc3OCc3ccccc3)ncn2)cc1 (stereo not drawn) landed at 6.00 to 9.00

Recorded result, `COc1ccccc1-c1cc(Nc2ccc(NC(=O)CC(C)(C)C)cc2)ncn1` , pIC50: 5.00 to 6.00

###

biological target: CDK2/CyclinA (Homo sapiens); assay: Kinase assay determining CDK2/CyclinA activity; settings: read-out: CDK2 (activity range)
pIC50: −log10 of the molar value.
Quantity: pIC50

Query `COc1ccc(-c2cc(Nc3cccc(S(N)(=O)=O)c3)ncn2)cc1` yields pIC50 of 6.00 to 9.00

// recorded pIC50 for `COc1ccccc1-c1cc(Nc2ccc(C(=O)Nc3ccc(O)cc3)cc2)ncn1` : 5.00 to 6.00

Record `CCN(CC)CCC(=O)Nc1ccc(Nc2cc(-c3ccccc3OC)ncn2)cc1` . Reported pIC50: 5.00 to 6.00

pIC50 measured on `COc1ccccc1-c1cc(Nc2ccc(NC(=O)c3nc4ccccc4s3)cc2)ncn1` = 3.60 to 5.00

`COc1ccccc1-c1cc(Nc2ccc(N3CCCC3=O)cc2)ncn1` has a reported pIC50 of 6.00 to 9.00

Form field pIC50, entry `COc1ccccc1-c1cc(Nc2ccc(N)cc2C)ncn1` : 5.00 to 6.00

Documented pIC50 of `Cc1ccc(Nc2cc(-c3ccccc3OCc3ccccc3)ncn2)cc1NS(C)(=O)=O` : 6.00 to 9.00

For `COc1ccccc1-c1cc(N(C)c2ccc(NS(=O)(=O)c3ccc(C)cc3)cc2)ncn1` the molecule record lists pIC50 as 5.00 to 6.00

Form field pIC50, entry `COc1ccccc1-c1cc(Nc2ccc(-c3nc4ccccc4[nH]3)cc2)ncn1` : 6.00 to 9.00

Input `COc1cccc(-c2cc(Nc3ccc(NC(=O)c4ccc(N)cc4)cc3)ncn2)c1OC` . Output pIC50: 5.00 to 6.00

Notebook: `COc1ccccc1-c1cc(Nc2ccc(NC(=O)C(C)(C)C)cc2)ncn1` , pIC50 read as 5.00 to 6.00

Record summary for `Cc1ccc(Nc2cc(-c3cccc(O)c3)ncn2)cc1NS(C)(=O)=O` : reported pIC50 = 6.00 to 9.00

pIC50 reading for `COc1ccc(-c2cc(NCCc3ccncc3)ncn2)cc1` : 3.60 to 5.00

Notebook: `COc1ccccc1-c1cc(Nc2ccc(NC(=O)C3CCN(C)CC3)cc2)ncn1` , pIC50 read as 5.00 to 6.00

Value of measured pIC50 for the entry `CSc1ccccc1-c1cc(Nc2ccc(NC(=O)[C@@H]3CCCCN3)cc2)ncn1` : 5.00 to 6.00

Lab book: pIC50 of `COc1ccccc1-c1cc(Nc2cccc(NC(=O)[C@@H]3CCCCN3)c2)ncn1` noted as 6.00 to 9.00

Value of pIC50 reported for the molecule `COc1ccccc1-c1cc(Nc2ccc(NC(=O)C(C)(C)C)cc2C)ncn1` is 3.60 to 5.00

For `COc1cccc(OC)c1-c1cc(Nc2ccc(NC(=O)c3ccc(N)cc3)cc2)ncn1` the molecule record lists pIC50 as 3.60 to 5.00

Just so you know, measured pIC50 for `CCCS(=O)(=O)Nc1cc(Nc2cc(-c3cccc(N)c3)ncn2)ccc1C` came out at 6.00 to 9.00

pIC50 reported for this molecule COc1ccccc1-c1cc(Nc2ccc(C(=O)N[C@@H]3CCCC[C@H]3O)cc2)ncn1 (racemic) : 5.00 to 6.00

The value of pIC50 measured for the molecule `Nc1ccc(C(=O)Nc2ccc(Nc3cc(NCC4CCCCC4)ncn3)cc2)cc1` turned out to be 3.60 to 5.00

// recorded pIC50 for `Cc1ccc(Nc2cc(-c3cccc(N)c3)ncn2)cc1NS(C)(=O)=O` : 6.00 to 9.00

###

target: CDK9/Cyclin T1 (Homo sapiens); assay: Kinase assay using CDK9/Cyclin T1; conditions: read-out: CDK9 (activity range)
pIC50: −log10 of the molar value.
Quantity: pIC50

The measured pIC50 associated with `O=C(NC1CCCC1)c1ccc(-c2cc(Nc3ccc(NC(=O)[C@@H]4CCCCN4)cc3)ncn2)cc1` reads 5.00 to 6.00

Note to self: pIC50 recorded for `COc1ccccc1-c1cc(NCCc2ccncc2)ncn1` was 5.00 to 6.00

// COc1ccccc1-c1cc(Nc2ccc(NC(=O)C(c3ccccc3)C(C)C)cc2)ncn1 (stereo not shown) : pIC50 value = 5.00 to 6.00

Per the records, this compound ( `COc1ccc(-c2cc(Nc3ccc(NC(=O)c4ccc(N)cc4)cc3)ncn2)cc1` ) has pIC50 equal to 6.00 to 9.00

pIC50 in this record for `CC(C)(C)C(=O)Nc1ccc(Nc2cc(NCCN)ncn2)cc1` : 3.60 to 5.00

Per the record, `CS(=O)(=O)Nc1cccc(Nc2cc(-c3cccc(N)c3)ncn2)c1` has pIC50 of 6.00 to 9.00

Entry `COc1ccccc1-c1ncnc(Nc2ccc(N)cc2)c1C` , pIC50 reported as 3.60 to 5.00

The compound listed as `COc1ccc(C(C)C)cc1-c1cc(Nc2ccc(NC(=O)c3ccc(N)cc3)cc2)ncn1` has a reported pIC50 of 3.60 to 5.00

Kindly note the recorded pIC50 for `COc1ccccc1-c1cc(Nc2ccc(NC(=O)c3ccc(N)cc3)cc2)ncn1` , which is 6.00 to 9.00

For reference, reported pIC50 for `O=C(Nc1ccc(Nc2cc(-c3ccccc3OCc3ccccc3)ncn2)cc1)[C@@H]1CCCCN1` stands at 6.00 to 9.00

Notebook: `Cc1ccc(Nc2cc(-c3cncnc3)ncn2)cc1NS(C)(=O)=O` , pIC50 read as 5.00 to 6.00

// pIC50 value for `C=Cc1ccccc1-c1cc(Nc2ccc(NC(=O)C(C)(C)C)cc2)ncn1` : 5.00 to 6.00

Lookup result for `COc1ccccc1-c1cc(Nc2ccc(NS(=O)(=O)c3ccccc3)cc2)ncn1` ; measured pIC50: 6.00 to 9.00
